Test Name: Drug library screen, cell viability (CellTiter-Glo)
Type: cell-based, human
Recorded Conditions: human; HCT116 ARID1A-WT; 10 μM for 5 days; relative to cells treated with solvent (DMSO); read-out: Cell viability, WT
Experimental: ARID1A-WT and ARID1A-KO HCT116 cancer cells were used for screening assays. […] Cell viability was assessed after 5 days using the CellTiter-Glo Luminescent Cell Viability Assay (Promega). Luminescence was measured using an Envision Multi-label plate reader (PerkinElmer). The luminescence reading was used to determine the cell viability relative to that of cells treated with solvent (DMSO). […]
# viability values compiled below
Answer format: numeric, % implied, no suffix.

[[record]]
compound = "C[C@@H]1O[C@@H](O[C@H]2C[C@@H](O)[C@]3(CO)[C@H]4[C@H](O)C[C@]5(C)[C@@H](C6=CC(=O)OC6)CC[C@]5(O)[C@@H]4CC[C@]3(O)C2)[C@H](O)[C@H](O)[C@H]1O"
units_label = "%"
readout_number = 4.81


Qu. So what does the record say about viability for `CN1C(=O)[C@]2(Cc3cn([C@]45C[C@@]67SS[C@@](CO)(C(=O)N6[C@H]4Nc4ccccc45)N(C)C7=O)c4ccccc34)SS[C@@]1(CO)C(=O)N2C` ?
Ans. 4.21

Qu. viability for `CC1=C2C[C@H]3[C@@H](CC=C4C[C@@H](O)CC[C@@]43C)[C@@H]2CC[C@]12O[C@@H]1C[C@H](C)CN[C@H]1[C@H]2C` ?
Ans. 49.3

Qu. Entry under review: `C[C@@]12C(=O)OC(=O)[C@]1(C)[C@H]1CC[C@@H]2O1` . Reported viability?
Ans. 26.2

Qu. Any idea what viability was measured for `CC1=C(O)C(=O)[C@@H]2O[C@@H]2C1=O` ?
Ans. 88.9

Qu. Given the compound `O=c1c(-c2ccc(O)cc2)coc2cc(O)cc(O)c12` , what is its reported viability?
Ans. 173

Qu. Endpoint output: viability of `CNc1ccc2oc(C[C@H]3O[C@@]4(CC[C@H]3C)O[C@H]([C@H](C)C(=O)c3ccc[nH]3)[C@H](C)C[C@H]4C)nc2c1C(=O)O` . Value?
Ans. 6.25

Qu. So what does the record say about viability for `C[n+]1cc2c3c(ccc2c2ccc4cc5c(cc4c21)OCO5)OCO3` ?
Ans. 1.83

Qu. What measured viability goes with `O[C@H]1[C@H]2[C@H](O)CCCN2C[C@H]1O` ?
Ans. 115

Qu. Item under review: `C[C@H](CCC(=O)O)C[C@H](C)C[C@H](C)C(=O)/C=C(\O)[C@H](C)C[C@H](C)C/C=C/[C@@H](C)[C@@H](O)[C@@H](C)[C@@H](O)C[C@@H]1CC[C@@](C)([C@H]2CC[C@@](C)([C@@H](C)O)O2)O1` . Reported viability?
Ans. 31.8

* * *

Test Name: Drug library screen, cell viability (CellTiter-Glo)
Assay type: cell-based, human
Recorded Conditions: human; HCT116 ARID1A-WT; 10 μM for 5 days; relative to cells treated with solvent (DMSO); read-out: Cell viability, WT
Structures can show the parent of a compound that is named as a salt.
# viability at 5 days, 10 μM per record follows
Return type: number; implicit unit %.

Below: 9 compounds and their reported viability at 5 days, 10 μM.
[[record]]
compound = "C=CC[C@@H]1/C=C(\\C)C[C@H](C)C[C@H](OC)[C@H]2O[C@@](O)(C(=O)C(=O)N3CCCC[C@H]3C(=O)O[C@H](/C(C)=C/[C@@H]3CC[C@@H](O)[C@H](OC)C3)[C@H](C)[C@@H](O)CC1=O)[C@H](C)C[C@@H]2OC [FK-506]"
quantity_kind = "viability at 5 days, 10 μM"
readout_number = 173

[[record]]
compound = "O=c1c2ccccc2[nH]c(=S)n1CCN1CCC(=C(c2ccc(F)cc2)c2ccc(F)cc2)CC1 [Diacylglycerol kinase inhibitor II]"
quantity_kind = "viability at 5 days, 10 μM"
readout_number = 141

[[record]]
compound = "CCOC(=O)C1=C(C)NC(=S)NC1c1cccc(O)c1 (stereo not shown) [Monastrol]"
quantity_kind = "viability at 5 days, 10 μM"
readout_number = 102

[[record]]
compound = "Nc1cccc2c1CN(C1CCC(=O)NC1=O)C2=O (stereo not shown) [lenalidomide]"
quantity_kind = "viability at 5 days, 10 μM"
readout_number = 91.1

[[record]]
compound = "CNCCCN1c2ccccc2CCc2ccccc21 [desipramine hydrochloride]"
quantity_kind = "viability at 5 days, 10 μM"
readout_number = 34.6

[[record]]
compound = "CC(C)C[C@H](NC(=O)[C@H](Cc1ccccc1)NC(=O)c1cnccn1)B(O)O [bortezomib]"
quantity_kind = "viability at 5 days, 10 μM"
readout_number = 3.06

[[record]]
compound = "CC(C)C(=O)Nc1ccc([N+](=O)[O-])c(C(F)(F)F)c1 [Flutamide]"
quantity_kind = "viability at 5 days, 10 μM"
readout_number = 163

[[record]]
compound = "C[C@@]1(CO)[C@H](O)CC[C@@]2(C)[C@H]1CC[C@H]1C[C@@H]3C[C@@]12CC[C@]3(O)CO [Aphidicolin]"
quantity_kind = "viability at 5 days, 10 μM"
readout_number = 14

[[record]]
compound = "C[C@@H]1C[C@H]2[C@@H]3CCC4=CC(=O)C=C[C@]4(C)[C@@]3(F)[C@@H](O)C[C@]2(C)[C@@]1(O)C(=O)CO [Dexamethasone]"
quantity_kind = "viability at 5 days, 10 μM"
readout_number = 212


Moving on to another compound below.
Qu. Could you tell me which viability at 5 days, 10 μM is on file for CC(=O)N[C@@H](CSC(=O)[C@]1([C@@H](O)C(C)C)NC(=O)[C@H](C)[C@@H]1O)C(=O)O [Lactacystin] ?
Ans. 32.6
